Biological target: Carbonic anhydrase (Pseudomonas aeruginosa (strain ATCC 15692 / PAO1 / 1C / PRS 101 / LMG12228), UniProt Q9HVB9)
Sequence (Q9HVB9 whole entry): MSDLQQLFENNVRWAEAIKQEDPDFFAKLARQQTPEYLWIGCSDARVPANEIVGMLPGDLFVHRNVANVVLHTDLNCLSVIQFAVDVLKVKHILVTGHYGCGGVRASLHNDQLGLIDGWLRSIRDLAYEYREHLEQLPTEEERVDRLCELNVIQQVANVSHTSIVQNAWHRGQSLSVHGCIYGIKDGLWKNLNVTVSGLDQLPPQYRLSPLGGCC
Test: biochemical
Description: Inhibition of Pseudomonas aeruginosa PAO1 type-2 beta-carbonic anhydrase psCA3 expressed in Escherichia coli Tuner BL21 (DE3) cells pre-incubated for 15 mins at pH 8.3 and 293K by CO2 hydration reaction based colorimetric stopped-flow method
measure: log10 of Ki (log10 of the value in µM)

compound="N#C[SeH] [SODIUM SELENOCYANATE]" measure="log10 of Ki" reportedmeasurement=2.83
compound="O=[N+]([O-])[O-].[Na+] [SODIUM NITRATE]" measure="log10 of Ki" reportedmeasurement=4.15
compound=Nc1cccc(S(N)(=O)=O)c1 measure="log10 of Ki" reportedmeasurement=-1.49
compound="OB(O)c1ccccc1 [PHENYLBORONIC ACID]" measure="log10 of Ki" reportedmeasurement=0.90
compound="O=C([O-])O.[Na+] [SODIUM BICARBONATE]" measure="log10 of Ki" reportedmeasurement=3.51
compound="[N-]=[N+]=[N-] [SODIUM AZIDE]" measure="log10 of Ki" reportedmeasurement=2.89
compound="N#CO [SODIUM CYANATE]" measure="log10 of Ki" reportedmeasurement=2.81
compound="N#C[S-].[Na+] [THIOCYANATE SODIUM]" measure="log10 of Ki" reportedmeasurement=2.79
compound="NS(N)(=O)=O [SULFAMIDE]" measure="log10 of Ki" reportedmeasurement=0.90
compound="O=S(=O)(O)ONOS(=O)(=O)O [SODIUM IMINODISULFATE]" measure="log10 of Ki" reportedmeasurement=3.67
compound="O=BOB(O)OB(O)OB=O [SODIUM TETRABORATE]" measure="log10 of Ki" reportedmeasurement=3.96
compound="NS(=O)(=O)O [SULFAMATE]" measure="log10 of Ki" reportedmeasurement=1.58
compound="O=S(=O)(O)OOS(=O)(=O)O [SODIUM PERSULFATE]" measure="log10 of Ki" reportedmeasurement=2.86
compound="CCN(CC)C(=S)S [DITIOCARB SODIUM]" measure="log10 of Ki" reportedmeasurement=2.52
compound="O=[Te](=O)(O)O [SODIUM TELLURATE]" measure="log10 of Ki" reportedmeasurement=3.90
compound="O=NO [SODIUM NITRITE]" measure="log10 of Ki" reportedmeasurement=2.97
compound="S [SODIUM HYDROSULFIDE]" measure="log10 of Ki" reportedmeasurement=2.79
compound="O=[Se](=O)(O)O [SODIUM SELENATE]" measure="log10 of Ki" reportedmeasurement=4.37
compound="S=C(S)S [SODIUM CARBONOTRITHIOATE]" measure="log10 of Ki" reportedmeasurement=2.92
compound="O=S([O-])O.[Na+] [SODIUM BISULFITE]" measure="log10 of Ki" reportedmeasurement=3.85
